ASSAY_CONDITIONS: in acetonitrile, 251.75 K
PARAMETER: solubility (mole fraction)

Challenge: Give the reported value of solubility (mole fraction) for this record: COC(=O)C(C)(C)N=NC(C)(C)C(=O)OC
Response given: 0.0545

---

ASSAY_CONDITIONS: in ethyl acetate, 252.15 K
PARAMETER: solubility (mole fraction)
Quick one: just the number, no unit, thanks!

Challenge: Consider the compound COC(=O)C(C)(C)N=NC(C)(C)C(=O)OC . State its measured solubility (mole fraction).
Response given: 0.107

---

ASSAY_CONDITIONS: in toluene, 276.05 K
PARAMETER: solubility (mole fraction)

Challenge: Identify the reported solubility (mole fraction) for the following entry. COC(=O)C(C)(C)N=NC(C)(C)C(=O)OC
Response given: 0.326
